System: Klebsiella pneumoniae
Test: Antibacterial activity against Klebsiella pneumoniae at 10 ug/ml after 24 hr by disk diffusion method
Assay type: functional
Conditions: read-out: DIZ
Quantity Measured: zone of inhibition at 10 µg/mL (mm)
Hi! Could you send only the number? It should be in mm, unit omitted.

Check out these entries, answers already filled in.
COc1ccc(/C=C(\C#N)c2nc3cc(Cl)ccc3o2)cc1    10
N#C/C(=N\Nc1ccccc1)c1nc2cc(Cl)ccc2o1    10

Provide one value: measured zone of inhibition at 10 µg/mL of COc1cc(/C=C(\C#N)c2nc3cc(F)ccc3o2)cc(OC)c1OC
15

Provide one value: measured zone of inhibition at 10 µg/mL of N#CC(=C1CCCCC1)c1nc2cc(Cl)ccc2o1
5

Provide one value: measured zone of inhibition at 10 µg/mL of COc1ccc(N/N=C(\C#N)c2nc3cc(Cl)ccc3o2)cc1
5

Provide one value: measured zone of inhibition at 10 µg/mL of N#C/C(=N\Nc1ccc(Br)cc1)c1nc2cc(Cl)ccc2o1
10

---

Below, each entry is listed with its recorded zone of inhibition at 10 µg/mL.
Tested on: Klebsiella pneumoniae
Test: Antibacterial activity against Klebsiella pneumoniae at 10 ug/ml after 24 hr by disk diffusion method
Format: functional
Conditions: read-out: DIZ
Hi! Could you send only the number? It should be in mm, unit omitted.

N#C/C(=N\Nc1ccc(Cl)cc1)c1nc2cc(Cl)ccc2o1    10
N#C/C(=C\c1ccc(O)cc1)c1nc2cc(Cl)ccc2o1    10

Provide one value: measured zone of inhibition at 10 µg/mL of N#CC(=C1CCCC1)c1nc2cc(Cl)ccc2o1
10

Provide one value: measured zone of inhibition at 10 µg/mL of N#C/C(=C\c1ccccc1)c1nc2cc(Cl)ccc2o1
10

Provide one value: measured zone of inhibition at 10 µg/mL of COc1cc(/C=C(\C#N)c2nc3cc(Cl)ccc3o2)cc(OC)c1OC
10

---

Tested on: Aspergillus flavus
Assay: Antifungal activity against Aspergillus flavus at 50 ug/ml after 48 hr by agar plate diffusion method
Assay type: functional
Below, each entry is listed with its recorded inhibition at 50 µg/mL.
Hi! Could you send only the number? It should be in %, unit omitted.

Check out these entries, answers already filled in.
N#CC(=C1CCCC1)c1nc2cc(Cl)ccc2o1    60
N#C/C(=C\c1ccccc1)c1nc2cc(Cl)ccc2o1    60

Consider the additional compound presented here.
Provide inhibition at 50 µg/mL, system Aspergillus flavus, entry N#C/C(=C\c1ccc(O)cc1)c1nc2cc(Cl)ccc2o1
60
